- tgt: Cyclin-dependent kinase 6 (Homo sapiens)
- applied.conditions: at 0.1 µM;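 note: mean percent inhibition of CDK6 complexed with cyclin D3, from the GSK PKIS kinase inhibitor screen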
Please provide measured inhibition for the entries that follow.
Provide the reading as a plain figure in %.

Problem: Requested field: inhibition. Item: `CN(C)C(=O)O[C@H]1CN[C@H](C#Cc2cc3ncnc(Nc4ccc(OCc5cccc(F)c5)c(Cl)c4)c3s2)C1`
Result: 2.1

Problem: Likewise for `Cc1ccc(NC(=O)CC2CC2)cc1-c1ccc(C(=O)NCC2CC2)cc1` ?
Result: 1.72

Problem: // next record `NS(=O)(=O)c1ccc(N/N=C2\C(=O)Nc3ccc(Cl)cc32)cc1`
Result: 15.3

Problem: Same read-out for `COc1ccc(-c2nn3ncccc3c2-c2ccnc(Nc3cccc(C(F)(F)F)c3)n2)cc1` ?
Result: -1.93

Problem: Queued: `CN(C)C(=O)O[C@@H]1CN[C@@H](C#Cc2cc3ncnc(Nc4ccc(OCc5cccc(F)c5)c(Cl)c4)c3s2)C1`
Result: -6.37

// provenance: ChEMBL document CHEMBL1961873
